Catalogue of aptazyme ON/OFF ratio readings, one per entry.
B1: Pistol ribozyme (parent)
chain: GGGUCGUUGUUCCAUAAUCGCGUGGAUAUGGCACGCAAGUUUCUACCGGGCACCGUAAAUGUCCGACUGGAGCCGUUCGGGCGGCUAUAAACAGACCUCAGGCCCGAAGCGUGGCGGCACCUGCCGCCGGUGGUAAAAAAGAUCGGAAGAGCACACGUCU

Variants of: B1
Experiment: aptazyme ON/OFF ratio, guanine; higher = stronger switching; co-transcriptional cleavage with and without guanine
parameter: aptazyme ON/OFF ratio

| mutation | parameter | observed.value |
| --- | --- | --- |
| U8G G9U U10A U11A C12U C13G | aptazyme ON/OFF ratio | 1.11 |
| U7G U8G G9U U10G U11C | aptazyme ON/OFF ratio | 1.1 |
| U7C G9A U10C U11G C12U C13A | aptazyme ON/OFF ratio | 1.31 |
| U7A U10C | aptazyme ON/OFF ratio | 4.51 |
| G9U C12U C13U | aptazyme ON/OFF ratio | 1.34 |
| U7C U8G G9A U10A C12G C13U | aptazyme ON/OFF ratio | 1.31 |
| U7C U8C G9C U10A U11A C12U | aptazyme ON/OFF ratio | 1.09 |
| U7G U8C C13G | aptazyme ON/OFF ratio | 1.07 |
| U7G U8A G9U U10G U11A C12U C13U | aptazyme ON/OFF ratio | 1.02 |
| U8G G9A U10C U11G C12G | aptazyme ON/OFF ratio | 1.45 |
| U7C U8C G9U U10A C12G C13U | aptazyme ON/OFF ratio | 1.08 |
| U7A G9C C12U C13U | aptazyme ON/OFF ratio | 1.1 |
| U7A U8A U10G U11C C12A C13U | aptazyme ON/OFF ratio | 1.34 |
| U8C G9U U10G U11A C12G C13G | aptazyme ON/OFF ratio | 1.33 |
| U7C U8A G9U U10G U11C C12A | aptazyme ON/OFF ratio | 1.21 |
| U8G G9U U11A | aptazyme ON/OFF ratio | 1.73 |
| U7G U8A G9A U10C U11G | aptazyme ON/OFF ratio | 1.24 |
| U7A U8A G9A U10C U11G C12U C13G | aptazyme ON/OFF ratio | 1.05 |
| U7C U8G C12U | aptazyme ON/OFF ratio | 2.44 |
| U7A U8A U10G C12U C13U | aptazyme ON/OFF ratio | 1.42 |
| U7C U8C G9A U10G U11A C12G C13G | aptazyme ON/OFF ratio | 1.2 |
| U7C U8C G9A U10G U11G C12A C13G | aptazyme ON/OFF ratio | 1.1 |
| U8G U11C C12A | aptazyme ON/OFF ratio | 1.13 |
| U7C G9C U10G C12G C13A | aptazyme ON/OFF ratio | 1.11 |
| U7A U8C C13G | aptazyme ON/OFF ratio | 1.16 |
| U8A U10G C13G | aptazyme ON/OFF ratio | 1.23 |
| U7G U8A U10G U11A C12A C13A | aptazyme ON/OFF ratio | 1.47 |
| U7A U8C G9C U10A U11C C13U | aptazyme ON/OFF ratio | 1.12 |
| U8C G9C U10G C12G C13A | aptazyme ON/OFF ratio | 1.08 |
| U7G G9A U10A U11C C12U C13A | aptazyme ON/OFF ratio | 1.15 |
| U7A U8G G9C U11A C13G | aptazyme ON/OFF ratio | 1.15 |
| U7G G9A U10C U11C C12A C13A | aptazyme ON/OFF ratio | 1.11 |
| U8C G9A U10C U11G C12A C13G | aptazyme ON/OFF ratio | 1.27 |
| U7A U8C G9C | aptazyme ON/OFF ratio | 1.08 |
| U7G U8G G9C U10G C12A C13A | aptazyme ON/OFF ratio | 1.07 |
| U7C U8A U11A C12U | aptazyme ON/OFF ratio | 1.16 |
| U7C U10C U11G C12A | aptazyme ON/OFF ratio | 1.35 |

src = the RNAGym collection of RNA variant scans (doi:10.1021/acssynbio.7b00057)
